The reported numbers originate from PubChem BioAssay AID552.

For each entry below, report its inhibition value.
# assayExplanation: growth inhibitors of wild type E. coli, primary screen, strain BW25113 wild type, absorbance readout (AID 552);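 also: bacteria exposed to compound for 20 hours at 37 °C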
# measurementParameters: OD600, at 10 µM, active compounds read high
Screen size: about 20,000 compounds; about 10 (0.05%) were called active. Shown is part of a subset that was picked to be rich in actives.
# output: bare number, implied unit %

For Cc1cc2c(cc1C)NC(c1ccccn1)C1=C(CC(C)(C)CC1=O)N2 (stereo unspecified) , write its inhibition. -18.9

Give inhibition for the following compound: `O=C(Cc1nn[nH]n1)NCCC1=CCCCC1` 17.3

Provide one value: measured inhibition of `COc1ccc(-c2noc(COc3ccc(Cl)c(C)c3)n2)cc1` 15.8

Report measured inhibition; entry is `CN(C)S(=O)(=O)c1ccc(Oc2ccc(S(=O)(=O)N(C)C)cc2)cc1` 7.29

Return inhibition for the following compound: `Cc1nc(C)c(C(=O)Nc2ccc(C)c(F)c2)o1` -3.6

Name the recorded inhibition of the compound listed here: `CCS(=O)(=O)NCCc1ccc(OC)c(OC)c1` -17.9

Report inhibition for CC1CCc2c(sc3c2C2=NS(=O)(=O)CCN2C=N3)C1 (stereo unspecified) 6

Quote inhibition reported for `O=C1C2(c3ccccc3)CN(CCCO)CC1(c1ccccc1)CN(CCCO)C2` please. -16.6

Specify reported inhibition for the compound shown: `CCn1cc(NC(=O)Nc2ccc(OC)c(OC)c2)c(C(N)=O)n1` -17.1

Complete the entry with inhibition for `COc1ccc(C(=O)Nc2cccnc2)cc1C(=O)Nc1cccnc1` 1.96

Give reported inhibition value for CC(C)COC(=O)C1C2C=CC3(CN(C(C)c4ccc(Br)cc4)C(=O)C13)O2 (stereo unspecified) 15.3

* * *

# assayExplanation: growth inhibitors of wild type E. coli, primary screen, strain BW25113 wild type, absorbance readout (AID 552);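 also: bacteria exposed to compound for 20 hours at 37 °C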
# measurementParameters: OD600, at 10 µM, active compounds read high
The campaign covered roughly 20,000 compounds. About 10 (0.05%) were called active. Only a selection was taken, and actives are over-represented in it overall. Where a SMILES comes first, the peptide text is derived from it. [ ]: non-standard residue; d: D form. ξ: configuration not given here. ξV = CC(C)C(N)C(=O)O
measuredMetric: inhibition (%)
API: value field is a number in %; no unit string.

Read the entry `O=C(CS(=O)(=O)Cc1ccccc1)Nc1cccnc1` and write its reported inhibition. 6.45

// fetch inhibition given entry COC(=O)C1=C(C)Nc2ncnn2C1c1ccco1 (stereo unspecified) -13.1

Supply recorded inhibition for `O=C(CSc1nc(-c2ccco2)cc(C(F)(F)F)n1)N1CCc2ccccc2C1` here. -19.6

Look up inhibition of `COc1ccc(NC(=O)CCNC(=O)Cn2ccc3ccccc3c2=O)c(OC)c1` and report it. -0.805

Determine from records and report inhibition for CC(=O)NC(C(=O)NCC(N)=O)C(C)C (stereo unspecified) (Ac-[ξV]-Gly-NH2) 7.41

Supply reported inhibition belonging to this compound: `CCOC(=O)CSc1nnc(CNC(=O)c2cccs2)n1-c1cc(OC)ccc1OC` 6.52
